- assayMethodText: Biodistribution experiments in normal mice after i.v. injection
- Format: in vivo
- recordedConditions: male, ddY, mouse, in vivo, iv, total radioactivity, mice, i.v., 60 min after injection, mean (SD); read-out: Biodistribution of radioactivity, Heart
Where a SMILES comes first, the peptide text is derived from it. [ ]: non-standard residue; d: D form. The star is where a group is joined. DOTA = O=C(O)CN1CCN(CC(=O)O)CCN(CC(=O)*)CCN(CC(=O)O)CC1
measurementName: tissue uptake dose at 1 h (%ID)
Just the number please, in %ID, no unit attached.

Provide only the value of recorded tissue uptake dose at 1 h for O=C(O)C[C@@H](NC(=O)[C@@H](CC(=O)O)NC(=O)[C@@H](CC(=O)O)NC(=O)[C@@H](CC(=O)O)NC(=O)[C@@H](CC(=O)O)NC(=O)[C@@H](CC(=O)O)NC(=O)[C@@H](CC(=O)O)NC(=O)[C@@H](CC(=O)O)NC(=O)[C@@H](CC(=O)O)NC(=O)[C@@H](CC(=O)O)NC(=O)[C@@H](CC(=O)O)NC(=O)CN1CCN(CC(=O)O)CCN(CC(=O)O)CCN(CC(=O)O)CC1)C(=O)O [^67Ga-DOTA-(D-Asp)11, metal not drawn] ({DOTA}-[dD][dD][dD][dD][dD][dD][dD][dD][dD][dD][dD]-OH)
0.04

====

- assayMethodText: Biodistribution experiments in normal mice after i.v. injection
- Type: in vivo
- recordedConditions: male, ddY, mouse, in vivo, iv, total radioactivity, Biodistribution of radioactivity, Stomach
Where a SMILES comes first, the peptide text is derived from it. [ ]: non-standard residue; d: D form. The star is where a group is joined. DOTA = O=C(O)CN1CCN(CC(=O)O)CCN(CC(=O)*)CCN(CC(=O)O)CC1
measurementName: tissue uptake dose at 3 h (%ID)
Just the number please, in %ID, no unit attached.

Provide only the value of recorded tissue uptake dose at 3 h for O=C(O)C[C@@H](NC(=O)[C@@H](CC(=O)O)NC(=O)[C@@H](CC(=O)O)NC(=O)[C@@H](CC(=O)O)NC(=O)[C@@H](CC(=O)O)NC(=O)[C@@H](CC(=O)O)NC(=O)[C@@H](CC(=O)O)NC(=O)[C@@H](CC(=O)O)NC(=O)CN1CCN(CC(=O)O)CCN(CC(=O)O)CCN(CC(=O)O)CC1)C(=O)O [^67Ga-DOTA-(D-Asp)8, metal not drawn] ({DOTA}-[dD][dD][dD][dD][dD][dD][dD][dD]-OH)
0.1

Provide only the value of recorded tissue uptake dose at 3 h for O=C(O)C[C@@H](NC(=O)[C@@H](CC(=O)O)NC(=O)[C@@H](CC(=O)O)NC(=O)[C@@H](CC(=O)O)NC(=O)[C@@H](CC(=O)O)NC(=O)CN1CCN(CC(=O)O)CCN(CC(=O)O)CCN(CC(=O)O)CC1)C(=O)O [^67Ga-DOTA-(D-Asp)5, metal not drawn] ({DOTA}-[dD][dD][dD][dD][dD]-OH)
0.48

Provide only the value of recorded tissue uptake dose at 3 h for O=C(O)CC[C@@H](NC(=O)[C@@H](CCC(=O)O)NC(=O)[C@@H](CCC(=O)O)NC(=O)[C@@H](CCC(=O)O)NC(=O)[C@@H](CCC(=O)O)NC(=O)[C@@H](CCC(=O)O)NC(=O)[C@@H](CCC(=O)O)NC(=O)[C@@H](CCC(=O)O)NC(=O)[C@@H](CCC(=O)O)NC(=O)[C@@H](CCC(=O)O)NC(=O)[C@@H](CCC(=O)O)NC(=O)[C@@H](CCC(=O)O)NC(=O)[C@@H](CCC(=O)O)NC(=O)[C@@H](CCC(=O)O)NC(=O)CN1CCN(CC(=O)O)CCN(CC(=O)O)CCN(CC(=O)O)CC1)C(=O)O [^67Ga-DOTA-(D-Glu)14, metal not drawn]
0.29

Provide only the value of recorded tissue uptake dose at 3 h for O=C(O)C[C@@H](NC(=O)[C@@H](CC(=O)O)NC(=O)CN1CCN(CC(=O)O)CCN(CC(=O)O)CCN(CC(=O)O)CC1)C(=O)O [^67Ga-DOTA-(D-Asp)2, metal not drawn] ({DOTA}-[dD]-[dD]-OH)
0.36
